Hello, the source for this data is patent US12239654B2, in case you need it.

# ASSAY TEXT: Pharmacokinetics of MRS4322 following intravenous administration to neonatal pigs
# Assay type: in vivo
# PROTOCOL CONDITIONS: female, pig, brain extracellular fluid, iv, 0.2 mg/kg, brain ECF, MRS4322 0.2 mg/kg IV, 4 h, mean, read-out: Extracellular Fluid Concentration Mean
REPORTED PROPERTY: concentration at 4 h (ng/mL)
Just the number in ng/mL, nothing appended.

State its concentration at 4 h for this compound: CSc1nc(N)c2ncn([C@H]3[C@H](O)[C@H](O)[C@]4(CO)C[C@H]34)c2n1 [MRS4322]
0.941

* * *

# ASSAY TEXT: Pharmacokinetics of MRS4322 following intravenous administration to neonatal pigs
# Type: in vivo
# PROTOCOL CONDITIONS: female, pig, plasma, iv, 0.2 mg/kg, MRS4322 0.2 mg/kg IV, 0.25 h, individual subjects, read-out: Plasma Concentration by Subject
REPORTED PROPERTY: concentration at 0.25 h (ng/mL)
Express it in ng/mL; write the number only.

Give reported concentration at 0.25 h value for CSc1nc(N)c2ncn([C@H]3[C@H](O)[C@H](O)[C@]4(CO)C[C@H]34)c2n1
133

* * *

# TARGET ENTITY: mouse A3 adenosine receptor (Mus musculus, UniProt Q61618)
# Construct: whole cells for cAMP
# Sequence (Q61618 1-319): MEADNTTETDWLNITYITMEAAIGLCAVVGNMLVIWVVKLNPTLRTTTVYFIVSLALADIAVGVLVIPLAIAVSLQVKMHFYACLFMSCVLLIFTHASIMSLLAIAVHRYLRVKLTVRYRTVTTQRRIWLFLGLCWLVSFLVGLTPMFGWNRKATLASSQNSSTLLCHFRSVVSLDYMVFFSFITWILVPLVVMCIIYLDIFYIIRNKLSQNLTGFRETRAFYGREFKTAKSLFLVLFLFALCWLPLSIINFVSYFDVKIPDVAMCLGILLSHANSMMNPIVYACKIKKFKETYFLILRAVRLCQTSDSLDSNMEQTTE
# ASSAY TEXT: cAMP accumulation at mouse A3 receptors expressed in CHO cells
# PROTOCOL CONDITIONS: CHO cells stably expressing mouse A3R; read-out: EC50 ± SEM, Mouse A3R, cAMP accumulation
REPORTED PROPERTY: pEC50
Schema: pEC50 number; meaning minus log10 of the concentration expressed in molar units.

Give the measured pEC50 for CSc1nc(N)c2ncn([C@H]3[C@H](O)[C@H](O)[C@]4(CO)C[C@H]34)c2n1
6.12

* * *

# ASSAY TEXT: Plasma binding determination by plasma ultrafiltration, mouse
# Format: in vitro ADME
# PROTOCOL CONDITIONS: male, CD-1, mouse, plasma, mouse plasma, 1 μM, 37° C., ultrafiltration; read-out: % Bound Mean (converted)
REPORTED PROPERTY: fraction unbound at 60 min, 1 μM
// response body must contain only the number

Provide only the value of recorded fraction unbound at 60 min, 1 μM for CSc1nc(N)c2ncn([C@H]3[C@H](O)[C@H](O)[C@]4(CO)C[C@H]34)c2n1
0.742

* * *

# ASSAY TEXT: Brain binding determination by brain homogenate ultrafiltration, mouse
# Assay type: in vitro ADME
# PROTOCOL CONDITIONS: male, CD-1, mouse, brain homogenate, pH 7.4, mouse brain homogenate, 37° C., ultrafiltration, read-out: Fraction Unbound Mean
REPORTED PROPERTY: fraction unbound at 60 min, 1 μM
// no unit string in output, number only

CSc1nc(N)c2ncn([C@H]3[C@H](O)[C@H](O)[C@]4(CO)C[C@H]34)c2n1 [MRS4322] | 0.13

Consider the additional compound presented here.
Item CNC(=O)[C@H]1O[C@@H](n2cnc3c(NCc4cccc(I)c4)nc(Cl)nc32)[C@H](O)[C@@H]1O [Cl-IB-MECA, reference compound] : provide fraction unbound at 60 min, 1 μM
0.002
